# System tested: NDM-1 (Klebsiella pneumoniae, UniProt C7C422)
# Sequence (C7C422 whole entry, looked up, species assumed): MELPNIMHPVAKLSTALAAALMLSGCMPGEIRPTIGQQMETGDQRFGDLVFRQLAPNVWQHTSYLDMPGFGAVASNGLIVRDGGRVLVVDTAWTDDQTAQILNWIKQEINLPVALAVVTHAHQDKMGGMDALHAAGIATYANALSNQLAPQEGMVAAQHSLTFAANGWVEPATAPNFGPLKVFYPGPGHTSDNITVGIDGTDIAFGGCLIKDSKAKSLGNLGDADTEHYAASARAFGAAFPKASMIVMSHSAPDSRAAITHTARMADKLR
# Experiment description: biochemical
# Assay type: biochemical
# Measurement parameters: NDM-1 enzyme, CCF2-FA substrate; read-out: NDM-1 IC50
Can you tell me log10 of IC50 for the items I'm about to list?
The figures below represent log10 of IC50, where IC50 is stated in nM.

In: System NDM-1 (Klebsiella pneumoniae, UniProt C7C422). Read-out log10 of IC50. Item NS(=O)(=O)c1c(C(F)(F)F)ccc(N2CCN3C(=O)OCC3C2)c1-c1nnn[nH]1 (stereo not drawn) [Example 667] . Report value.
Out: 1.29

In: System NDM-1 (Klebsiella pneumoniae, UniProt C7C422). Read-out log10 of IC50. Item Nc1ccc(-c2ccc(CC3CCNCC3)c(S(N)(=O)=O)c2-c2nnn[nH]2)cn1 [Example 576] . Report value.
Out: 1.09

In: System NDM-1 (Klebsiella pneumoniae, UniProt C7C422). Read-out log10 of IC50. Item NS(=O)(=O)c1cccc(-c2ccc(N3CCC(O)C3)nc2)c1-c1nnn[nH]1 (stereo not drawn) [Example 633] . Report value.
Out: 0.69

In: System NDM-1 (Klebsiella pneumoniae, UniProt C7C422). Read-out log10 of IC50. Item CNC1CCc2c(-c3ccc(C(F)(F)F)c(S(N)(=O)=O)c3-c3nnn[nH]3)cccc21 (stereo not drawn) [Example 726] . Report value.
Out: 1.43

In: System NDM-1 (Klebsiella pneumoniae, UniProt C7C422). Read-out log10 of IC50. Item N[C@@H]1CCCN(c2ccc(-c3ccc(C(F)(F)F)c(S(N)(=O)=O)c3-c3nnn[nH]3)cc2)C1 [Example 727] . Report value.
Out: 0.33

In: System NDM-1 (Klebsiella pneumoniae, UniProt C7C422). Read-out log10 of IC50. Item NS(=O)(=O)c1cccc(-c2cccc3c2OCC3=O)c1-c1nn[nH]n1 [Example 521] . Report value.
Out: 0.54

In: System NDM-1 (Klebsiella pneumoniae, UniProt C7C422). Read-out log10 of IC50. Item NS(=O)(=O)c1c(C[C@H]2CC[C@H](N)CC2)ccc(-c2ccc(C3CNC3)cc2)c1-c1nn[nH]n1 [Example 595] . Report value.
Out: 0.64

In: System NDM-1 (Klebsiella pneumoniae, UniProt C7C422). Read-out log10 of IC50. Item Nc1nc2c(-c3ccc(C(F)(F)F)c(S(N)(=O)=O)c3-c3nnn[nH]3)cccc2s1 [Example 561] . Report value.
Out: -0.82

In: System NDM-1 (Klebsiella pneumoniae, UniProt C7C422). Read-out log10 of IC50. Item NS(=O)(=O)c1c(C(F)(F)F)ccc(C2CCC2)c1-c1nnn[nH]1 [Example 492] . Report value.
Out: 1.24
